MEASUREMENT DESCRIPTION: Chemical stability of the salts (stress at 60° C. and 75% relative humidity, purity by UHPLC)
Assay type: physicochemical
ASSAY SETUP: 1 day at 60° C. and 75% relative humidity, UHPLC
Structures can show the parent of a compound that is named as a salt.
PROPERTY MEASURED: Purity (%) of 1 day stress samples

Before answering, review these 8 worked examples.
[
  {
    "COMPOUND": "COc1cccc2c1CCOC2C1=NCCN1 (stereo not shown) [Hydrobromic acid salt Form 1]",
    "Purity (%) of 1 day stress samples": 98.1
  },
  {
    "COMPOUND": "COc1cccc2c1CCOC2C1=NCCN1 (stereo not shown) [Malonic acid salt Form 1]",
    "Purity (%) of 1 day stress samples": 96.6
  },
  {
    "COMPOUND": "COc1cccc2c1CCOC2C1=NCCN1 (stereo not shown) [Glutaric acid salt Form 1]",
    "Purity (%) of 1 day stress samples": 78.7
  },
  {
    "COMPOUND": "COc1cccc2c1CCOC2C1=NCCN1 (stereo not shown) [Oxalic acid salt Form 1]",
    "Purity (%) of 1 day stress samples": 97.9
  },
  {
    "COMPOUND": "COc1cccc2c1CCOC2C1=NCCN1 (stereo not shown) [Saccharin salt]",
    "Purity (%) of 1 day stress samples": 95.0
  },
  {
    "COMPOUND": "COc1cccc2c1CCOC2C1=NCCN1 (stereo not shown) [Hydrochloric acid salt Form 1]",
    "Purity (%) of 1 day stress samples": 89.8
  },
  {
    "COMPOUND": "COc1cccc2c1CCOC2C1=NCCN1 (stereo not shown) [Glycolic acid salt Form 1]",
    "Purity (%) of 1 day stress samples": 99.3
  },
  {
    "COMPOUND": "COc1cccc2c1CCOC2C1=NCCN1 (stereo not shown) [Mucic acid salt Form 1]",
    "Purity (%) of 1 day stress samples": 97.7
  }
]

(a) COc1cccc2c1CCOC2C1=NCCN1 [L-tartaric acid salt Form 1]
(b) COc1cccc2c1CCOC2C1=NCCN1 (stereo not shown) [Maleic acid salt Form 1]
Recorded Purity (%) of 1 day stress samples values differ for a and b ; which one is higher? Pick one; state its label.
a

====

MEASUREMENT DESCRIPTION: Chemical stability of the salts (stress at 60° C. and 75% relative humidity, purity by UHPLC)
Format: physicochemical
ASSAY SETUP: 14 days at 60° C. and 75% relative humidity, UHPLC
Structures can show the parent of a compound that is named as a salt.
PROPERTY MEASURED: Purity (%) of 14 day stress samples

(A) COc1cccc2c1CCOC2C1=NCCN1 (centres unmarked) [Mucic acid salt Form 1]
(B) COc1cccc2c1CCOC2C1=NCCN1 (centres unmarked) [Glycolic acid salt Form 1]
Short answer wanted: higher Purity (%) of 14 day stress samples, A or B ? Please identify the chosen entry by its label.
A
(A: 35.6%, B: 17.6%)

(A) COc1cccc2c1CCOC2C1=NCCN1 (centres unmarked) [Hydrochloric acid salt Form 1]
(B) COc1cccc2c1CCOC2C1=NCCN1 (centres unmarked) [Glutaric acid salt Form 1]
(C) COc1cccc2c1CCOC2C1=NCCN1 (centres unmarked) [Maleic acid salt Form 1]
// sort entries: Purity (%) of 14 day stress samples, high to low Returns: the labels listed in the requested order.
A, C, B

(P) COc1cccc2c1CCOC2C1=NCCN1 (centres unmarked) [Fumaric acid salt Form 2]
(Q) COc1cccc2c1CCOC2C1=NCCN1 (centres unmarked) [Adipic acid salt Form 1]
Looking at P and Q , which one comes out lower in Purity (%) of 14 day stress samples terms? Could you answer with the label of the item you picked?
Q

====

MEASUREMENT DESCRIPTION: Chemical stability of the salts (stress at 60° C. and 75% relative humidity, purity by UHPLC)
Type: physicochemical
ASSAY SETUP: 1 day at 60° C. and 75% relative humidity; purity difference; in %
Counter-ions that a name gives are not always drawn.
PROPERTY MEASURED: Difference between reference and 1 day stressed sample

(1) COc1cccc2c1CCOC2C1=NCCN1 [L-tartaric acid salt Form 2]
(2) COc1cccc2c1CCOC2C1=NCCN1 (stereo not drawn) [Oxalic acid salt Form 1]
(3) COc1cccc2c1CCOC2C1=NCCN1 (stereo not drawn) [Glutaric acid salt Form 1]
Sort the listed entries by Difference between reference and 1 day stressed sample, smallest first. Order the labels as requested and give them as your answer.
2, 1, 3
(2: −0.2, 1: 1.0, 3: 17.7)

====

MEASUREMENT DESCRIPTION: Chemical stability of the salts (stress at 60° C. and 75% relative humidity, purity by UHPLC)
Assay type: physicochemical
ASSAY SETUP: 14 days at 60° C. and 75% relative humidity, UHPLC
Where a name gives a salt, the structure may show the parent alone.
PROPERTY MEASURED: Purity (%) of 14 day stress samples

[
  {
    "MOLECULE": "COc1cccc2c1CCOC2C1=NCCN1 [L-tartaric acid salt Form 2]",
    "Purity (%) of 14 day stress samples": 88.3
  },
  {
    "MOLECULE": "COc1cccc2c1CCOC2C1=NCCN1 (stereo not shown) [Saccharin salt]",
    "Purity (%) of 14 day stress samples": 91.5
  },
  {
    "MOLECULE": "COc1cccc2c1CCOC2C1=NCCN1 (stereo not shown) [Ethane-1,2-disulfonic acid salt Form 1]",
    "Purity (%) of 14 day stress samples": 99.8
  },
  {
    "MOLECULE": "COc1cccc2c1CCOC2C1=NCCN1 [L-tartaric acid salt Form 1]",
    "Purity (%) of 14 day stress samples": 90.3
  },
  {
    "MOLECULE": "COc1cccc2c1CCOC2C1=NCCN1 (stereo not shown) [Malonic acid salt Form 1]",
    "Purity (%) of 14 day stress samples": 72.7
  },
  {
    "MOLECULE": "COc1cccc2c1CCOC2C1=NCCN1 (stereo not shown) [Oxalic acid salt Form 1]",
    "Purity (%) of 14 day stress samples": 97.9
  },
  {
    "MOLECULE": "COc1cccc2c1CCOC2C1=NCCN1 (stereo not shown) [Hydrobromic acid salt Form 1]",
    "Purity (%) of 14 day stress samples": 98.2
  }
]
